measurementKind: pKi
Please report pKi as the negative decimal logarithm of the molar concentration, giving only the number.

Request: Please tell me: pKi of CCC(=O)OCC(=O)[C@H](C[C@@H]1CCNC1=O)NC(=O)[C@H](CC(C)C)NC(=O)c1cc2c(OC)cccc2[nH]1 , system UniProt P0DTD1?
Response: 7.47

Request: Please tell me: pKi of COc1ccccc1C(=O)OCC(=O)[C@H](C[C@@H]1CCNC1=O)NC(=O)[C@H](CC(C)C)NC(=O)c1cc2c(OC)cccc2[nH]1 , system UniProt P0DTD1?
Response: 6.83

Request: Please tell me: pKi of COc1cc(C)c(C(=O)OCC(=O)[C@H](C[C@@H]2CCNC2=O)NC(=O)[C@H](CC(C)C)NC(=O)c2cc3c(OC)cccc3[nH]2)c(C)c1 , system UniProt P0DTD1?
Response: 6.93

====

experimentalTarget: full-length SARS-CoV-2 3CL protease (Severe acute respiratory syndrome coronavirus 2)
Construct: measures the activity of full-length SARS-CoV-2 3CL protease
measurementDescription: SARS-CoV-2 Coronavirus 3C Protease FRET Assay (Dabcyl-KTSAVLQ-SGFRKME-Edans substrate)
Type: biochemical
measurementContext: 15 nM enzyme, 25 μM peptide substrate, 60 minutes at 23° C.; Morrison equation fit; read-out: Geometric Mean Ki
pKi: −log10 of the molar value.
Kind request: treat 8 as inclusive, so pKi at 8 or higher is fulfilled, anything lower is not fulfilled.

Request: Confirm if pKi reported for the compound COc1cccc2[nH]c(C(=O)N[C@@H](CC(C)C)C(=O)N[C@@H](C[C@@H]3CCNC3=O)C(=O)COC(=O)c3cncn3C)cc12 [Example 45] is 8 or above.
Response: not fulfilled

Request: Confirm if pKi reported for the compound COc1cccc2[nH]c(C(=O)N[C@@H](CC(C)C)C(=O)N[C@@H](C[C@@H]3CCNC3=O)C(=O)COC(=O)c3c(C)ncnc3C)cc12 [Example 71] is 8 or above.
Response: fulfilled

Request: Confirm if pKi reported for the compound COc1cccc2[nH]c(C(=O)N[C@@H](CC(C)C)C(=O)N[C@@H](C[C@@H]3CCNC3=O)C(=O)COC(=O)c3ccncc3)cc12 [Example 34] is 8 or above.
Response: fulfilled

Request: Confirm if pKi reported for the compound CC[C@H](C)C(=O)OCC(=O)[C@H](C[C@@H]1CCNC1=O)NC(=O)[C@H](CC(C)C)NC(=O)c1cc2c(OC)cccc2[nH]1 [Example 18] is 8 or above.
Response: not fulfilled

Request: Confirm if pKi reported for the compound COc1cccc2[nH]c(C(=O)N[C@@H](CC(C)C)C(=O)N[C@@H](C[C@@H]3CCNC3=O)C(=O)COC(=O)c3c(C)ccnc3C)cc12 [Example 62] is 8 or above.
Response: fulfilled

Request: Confirm if pKi reported for the compound COc1cccc2[nH]c(C(=O)N[C@@H](CC(C)C)C(=O)N[C@@H](C[C@@H]3CCNC3=O)C(=O)COC(=O)c3ccccn3)cc12 [Example 35] is 8 or above.
Response: fulfilled

Request: Confirm if pKi reported for the compound CCOc1nccc(C)c1C(=O)OCC(=O)[C@H](C[C@@H]1CCNC1=O)NC(=O)[C@H](CC(C)C)NC(=O)c1cc2c(OC)cccc2[nH]1 [Example 64] is 8 or above.
Response: not fulfilled

Request: Confirm if pKi reported for the compound COc1cccc2[nH]c(C(=O)N[C@@H](CC(C)C)C(=O)N[C@@H](C[C@@H]3CCNC3=O)C(=O)COC(=O)c3c(C)nn(C)c3C)cc12 [Example 48] is 8 or above.
Response: not fulfilled

Request: Confirm if pKi reported for the compound COc1cccc2[nH]c(C(=O)N[C@@H](CC(C)C)C(=O)N[C@@H](C[C@@H]3CCNC3=O)C(=O)COC(=O)C(C)C)cc12 [Example 10] is 8 or above.
Response: not fulfilled

====

Measured Ki on full-length SARS-CoV-2 3CL protease (Severe acute respiratory syndrome coronavirus 2) follows.
Kindly provide the numeric value in nM only, without the unit symbol.

Request: Need Ki of COc1cccc2[nH]c(C(=O)N[C@@H](CC(C)C)C(=O)N[C@@H](C[C@@H]3CCNC3=O)C(=O)COC(=O)c3c(C)cc(C#N)cc3C)cc12 [Example 65] , thanks.
Response: 7.67

Request: Need Ki of COc1cccc2[nH]c(C(=O)N[C@@H](CC(C)C)C(=O)N[C@@H](C[C@@H]3CCNC3=O)C(=O)COC(=O)c3ccn(C)n3)cc12 [Example 43] , thanks.
Response: 118

Request: Need Ki of COc1cccc2[nH]c(C(=O)N[C@@H](CC(C)C)C(=O)N[C@@H](C[C@@H]3CCNC3=O)C(=O)COC(=O)[C@@H]3CCCN3C)cc12 [Example 28] , thanks.
Response: 2.47

Request: Need Ki of COc1cccc2[nH]c(C(=O)N[C@@H](CC(C)C)C(=O)N[C@@H](C[C@@H]3CCNC3=O)C(=O)COC(=O)c3c(C)cccc3Cl)cc12 [Example 67] , thanks.
Response: 8.82

Request: Need Ki of COc1cccc2[nH]c(C(=O)N[C@@H](CC(C)C)C(=O)N[C@@H](C[C@@H]3CCNC3=O)C(=O)COC(=O)[C@H]3CCCN3C)cc12 [Example 27] , thanks.
Response: 0.0321

Request: Need Ki of COc1cccc2[nH]c(C(=O)N[C@@H](CC(C)C)C(=O)N[C@@H](C[C@@H]3CCNC3=O)C(=O)COC(=O)c3ccccc3C)cc12 [Example 11] , thanks.
Response: 71.4

Request: Need Ki of COc1cccc2[nH]c(C(=O)N[C@@H](CC(C)C)C(=O)N[C@@H](C[C@@H]3CCNC3=O)C(=O)COC(=O)c3cccnc3C)cc12 [Example 24] , thanks.
Response: 14.2

Request: Need Ki of COc1cccc2[nH]c(C(=O)N[C@@H](CC(C)C)C(=O)N[C@@H](C[C@@H]3CCNC3=O)C(=O)COC(=O)c3c(C)cc(F)cc3C)cc12 [Example 74] , thanks.
Response: 44.3

Request: Need Ki of COc1cccc2[nH]c(C(=O)N[C@@H](CC(C)C)C(=O)N[C@@H](C[C@@H]3CCNC3=O)C(=O)COC(=O)c3cnccc3C)cc12 [Example 23] , thanks.
Response: 21.2

Request: Need Ki of COc1cccc2[nH]c(C(=O)N[C@@H](CC(C)C)C(=O)N[C@@H](C[C@@H]3CCNC3=O)C(=O)COC(=O)c3c(C)ccnc3CN(C)C)cc12 [Example 59] , thanks.
Response: 13.6

Request: Need Ki of COc1cccc2[nH]c(C(=O)N[C@@H](CC(C)C)C(=O)N[C@@H](C[C@@H]3CCNC3=O)C(=O)COC(=O)[C@H]3CCCCN3C)cc12 [Example 37] , thanks.
Response: 1.42

Request: Need Ki of COc1cccc2[nH]c(C(=O)N[C@@H](CC(C)C)C(=O)N[C@@H](C[C@@H]3CCNC3=O)C(=O)COC(=O)C3(C)CCC3)cc12 [Example 14] , thanks.
Response: 348

====

experimentalTarget: full-length SARS-CoV-2 3CL protease (Severe acute respiratory syndrome coronavirus 2, UniProt P0DTD1)
measurementKind: Ki (nM)
Kindly provide the numeric value in nM only, without the unit symbol.

Request: Need Ki of COc1cccc(C)c1C(=O)OCC(=O)[C@H](C[C@@H]1CCNC1=O)NC(=O)[C@H](CC(C)C)NC(=O)c1cc2c(OC)cccc2[nH]1 [Example 66] , thanks.
Response: 39.6

Request: Need Ki of COc1cccc2[nH]c(C(=O)N[C@@H](CC(C)C)C(=O)N[C@@H](C[C@@H]3CCNC3=O)C(=O)COC(=O)c3cnn(C)c3)cc12 [Example 44] , thanks.
Response: 90.6

Request: Need Ki of COc1cccc2[nH]c(C(=O)N[C@@H](CC(C)C)C(=O)N[C@@H](C[C@@H]3CCNC3=O)C(=O)COC(=O)c3cn(C)cn3)cc12 [Example 51] , thanks.
Response: 152

====

Please provide measured Ki for the entries that follow.
Express the reported value numerically, then name its unit.

Request: Please tell me: Ki of COc1cccc2[nH]c(C(=O)N[C@@H](CC(C)C)C(=O)N[C@@H](C[C@@H]3CCNC3=O)C(=O)COC(=O)c3ccccc3Cl)cc12 , system full-length SARS-CoV-2 3CL protease (Severe acute respiratory syndrome coronavirus 2)?
Response: 10.5 nM

Request: Please tell me: Ki of COc1cccc2[nH]c(C(=O)N[C@@H](CC(C)C)C(=O)N[C@@H](C[C@@H]3CCNC3=O)C(=O)COC(=O)c3ccccc3CN(C)C)cc12 , system full-length SARS-CoV-2 3CL protease (Severe acute respiratory syndrome coronavirus 2)?
Response: 14 nM

Request: Please tell me: Ki of COc1cccc2[nH]c(C(=O)N[C@@H](CC(C)C)C(=O)N[C@@H](C[C@@H]3CCNC3=O)C(=O)COC(=O)c3c(C)cccc3F)cc12 , system full-length SARS-CoV-2 3CL protease (Severe acute respiratory syndrome coronavirus 2)?
Response: 8.91 nM

Request: Please tell me: Ki of COc1cccc2[nH]c(C(=O)N[C@@H](CC(C)C)C(=O)N[C@@H](C[C@@H]3CCNC3=O)C(=O)COC(=O)C3CCN(C)CC3)cc12 , system full-length SARS-CoV-2 3CL protease (Severe acute respiratory syndrome coronavirus 2)?
Response: 6.13 nM

Request: Please tell me: Ki of COc1cccc2[nH]c(C(=O)N[C@@H](CC(C)C)C(=O)N[C@@H](C[C@@H]3CCNC3=O)C(=O)COC(=O)c3c(C)nc(C)nc3C)cc12 , system full-length SARS-CoV-2 3CL protease (Severe acute respiratory syndrome coronavirus 2)?
Response: 5.89 nM
